Source: paper PMC7179167

tested on: p53; assay: p53 ELISA in MCF-7 cells; type: cell-based, human; settings: MCF-7 cells treated at IC50 concentration; control 4.18 ± 0.58; mean ± SD
I'd appreciate it if you marked entries TRUE when p53 (Pg/50 mg Protein) is lower than 10 Pg/50 mg Protein and FALSE when it is not.

Examples from the recorded data:
[[record]]
compound = "COc1c(C2=NNC3(C2)C(=O)Nc2ccccc23)c(O)c(OC)c2occc12 (centres unmarked) [Compound 12a]"
class = "FALSE"

[[record]]
compound = "O=C1Nc2ccccc2C12CC(c1cn(Cc3ccccc3)c3ccccc13)=NN2 (centres unmarked) [Compound 13c]"
class = "TRUE"

[[record]]
compound = "COc1c(C2=NNC3(C2)C(=O)Nc2ccccc23)c(O)cc2occc12 (centres unmarked) [Compound 11a]"
class = "FALSE"

[[record]]
compound = "COc1cc2occc2c(OC)c1C1=NNC2(C1)C(=O)Nc1ccccc12 (centres unmarked) [Compound 11b]"
class = "TRUE"


Query: Lab log: compare recorded p53 (Pg/50 mg Protein) with 10 Pg/50 mg Protein; is it strictly lower for COc1c(C2=NNC3(C2)C(=O)Nc2ccccc23)c(OC)c2ccoc2c1OC (centres unmarked) [Compound 12b] ?
Result: FALSE

* * *

system: Bcl-2; experiment: Bcl-2 ELISA in HCT-116 cells; type: cell-based, human; conditions: HCT-116 cells treated at IC50 concentration; control 23.56 ± 3.56; mean ± SD
Entries and their measured Bcl-2 (ng/50 mg Protein) follow.
Report only the number, with the unit ng/50 mg Protein understood.

[[record]]
compound = "COc1cc2occc2c(OC)c1C1=NNC2(C1)C(=O)Nc1ccccc12 (centres unmarked) [Compound 11b]"
assay_metric = "Bcl-2 (ng/50 mg Protein)"
test_value = 7.25


Per the reported Bcl-2 data, COc1c(C2=NNC3(C2)C(=O)Nc2ccccc23)c(O)c(OC)c2occc12 (centres unmarked) [Compound 12a] has Bcl-2 (ng/50 mg Protein) of 21.13

With Bcl-2 as the test system, O=C1Nc2ccccc2C12CC(c1cn(Cc3ccccc3)c3ccccc13)=NN2 (centres unmarked) [Compound 13c] showed Bcl-2 (ng/50 mg Protein) of 57.45

Observed Bcl-2 (ng/50 mg Protein) on Bcl-2, entry COc1c(C2=NNC3(C2)C(=O)Nc2ccccc23)c(OC)c2ccoc2c1OC (centres unmarked) [Compound 12b] , equals 18.87

# Bcl-2 (ng/50 mg Protein) measured on Bcl-2 for item COc1c(C2=NNC3(C2)C(=O)Nc2ccccc23)c(O)cc2occc12 (centres unmarked) [Compound 11a] = 8.2

* * *

test: DPPH free radical scavenging assay; assay type: biochemical; details: 45 min; concentration of 20µg/l; mean ± SD of three experiments; read-out: Scavenging Activity (%) on DPPH radicals at 45 min
Reported inhibition values are given for each entry in this list.
The figure you give is taken to be in %; do not add the unit.

Solved entries (count: 8):
[[record]]
compound = "O=C(c1ccc(Cl)cc1)n1cc(C2=NN(c3ccccc3)C3(C2)C(=O)Nc2ccccc23)c2ccccc21 (stereo not shown) [Compound 14f]"
test_value = 16.2

[[record]]
compound = "O=C(c1ccc(Cl)cc1)n1cc(C2=NNC3(C2)C(=O)Nc2ccccc23)c2ccccc21 (stereo not shown) [Compound 13f]"
test_value = 34.3

[[record]]
compound = "O=C1O[C@H]([C@@H](O)CO)C(O)=C1O [Ascorbic acid, ascorbic acid, reference compound]"
test_value = 98.8

[[record]]
compound = "O=C(c1ccccc1Cl)n1cc(C2=NN(c3ccccc3)C3(C2)C(=O)Nc2ccccc23)c2ccccc21 (stereo not shown) [Compound 14e]"
test_value = 30.9

[[record]]
compound = "O=C1Nc2ccccc2C12CC(c1c[nH]c3ccccc13)=NN2 (stereo not shown) [Compound 13a]"
test_value = 56.5

[[record]]
compound = "O=C(c1ccccc1Cl)n1cc(C2=NNC3(C2)C(=O)Nc2ccccc23)c2ccccc21 (stereo not shown) [Compound 13e]"
test_value = 36.7

[[record]]
compound = "CCOc1c(C2=NNC3(C2)C(=O)Nc2ccccc23)c(OC)c2ccoc2c1OC (stereo not shown) [Compound 12c]"
test_value = 11.4

[[record]]
compound = "CCn1cc(C2=NN(c3ccccc3)C3(C2)C(=O)Nc2ccccc23)c2ccccc21 (stereo not shown) [Compound 14b]"
test_value = 60.3


GET /value?item= O=C1Nc2ccccc2C12CC(c1cn(Cc3ccccc3)c3ccccc13)=NN2c1ccccc1 (stereo not shown) [Compound 14c] &field=inhibition returns 26.3

What the record says about COc1cc2occc2c(OC)c1C1=NNC2(C1)C(=O)Nc1ccccc12 (stereo not shown) [Compound 11b] : inhibition is 20.4

// sample O=C1Nc2ccccc2C12CC(c1cn(S(=O)(=O)c3ccc(Br)cc3)c3ccccc13)=NN2c1ccccc1 (stereo not shown) [Compound 14g] , its inhibition was 14.1

So for O=C1Nc2ccccc2C12CC(c1cn(S(=O)(=O)c3ccc(Cl)cc3)c3ccccc13)=NN2 (stereo not shown) [Compound 13h] , the logged inhibition turned out to be 20.6

# inhibition of COc1c(C2=NNC3(C2)C(=O)Nc2ccccc23)c(O)c(OC)c2occc12 (stereo not shown) [Compound 12a] = 76.9

Documented inhibition of CCn1cc(C2=NNC3(C2)C(=O)Nc2ccccc23)c2ccccc21 (stereo not shown) [Compound 13b] : 56.3

GET /value?item= CCOc1cc2occc2c(OC)c1C1=NNC2(C1)C(=O)Nc1ccccc12 (stereo not shown) [Compound 11c] &field=inhibition returns 40.6

GET /value?item= O=C1Nc2ccccc2C12CC(c1c[nH]c3ccccc13)=NN2c1ccccc1 (stereo not shown) [Compound 14a] &field=inhibition returns 54
